molecular target: T1, human CD3 expressed on cells (Jurkat cells; human CD4 T cells) (human, UniProt P07766 23-207); assay: flow cytometry on Jurkat cells, one site saturation fit; set-up: unit not given here
T1 construct: whole, on cells; also called human CD3 receptor on T cell surface; human CD3 expressing cells (Jurkat cells)
T1 sequence (P07766 23-207): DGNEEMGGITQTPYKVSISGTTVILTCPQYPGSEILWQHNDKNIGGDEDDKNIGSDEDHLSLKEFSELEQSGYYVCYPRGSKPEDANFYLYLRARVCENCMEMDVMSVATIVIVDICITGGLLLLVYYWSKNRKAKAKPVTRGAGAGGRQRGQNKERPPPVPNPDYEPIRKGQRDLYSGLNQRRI
Endpoint Name: Best fit-Bmax

# Binder, Experimental Result
measured = [
    ("WBP3311_2.166.48 (antibody, IgG2a, V domains shown, Mouse monoclonal antibody from hybridoma; also called W3311-2.166.48; W3311_2.166.48) VH: QVQLQQSGPELVKPGASVKIACKASGYSFTTYYIHWVKQRPGQGLEWIGWIFPGNDNIKYSEKFKGKATLTADTSSSTAYMQLSSLTSEDSAVYFCAIDSVSIYYFDYWGQGTTLTVSS VL: DIVMSQSPSSLAVSAGEKVTMSCKSSQSLLNSRTRKNYLAWYQQKPGQSPKLLIYWASTRKSGVPDRFTGSGSGTDFTLTINSVQAEDLAVYYCTQSFILRTFGGGTKLEIK", "1.26e-10"),
]

# ---- query binder ----
GET /values?readout=Best fit-Bmax&item= WBP3311_2.383.47 (antibody, V domains shown, Mouse monoclonal antibody from hybridoma) VH: QVQLQQSGPELVKPGASVRISCKTSGFTFTNYYIHWVIQRPGQGLEWIGWISPENGNTKYNENFQDKATLTADISSSTAYMHLSSLTSEDSAVYFCARDGYSLYYFDYWGQGTTLTVSS VL: DIVMSQSPSSLTVSAGEKVTMSCKSSQSLLNSRTRKNYLAWYQQKPGQSPKLLIYWASIRVSGVPDRFTGSGSGTTFTLTISGVQAEDLAVYYCTQSHTLRTFGGGTKLEIK
1.12e-10
